Where do these numbers come from? They come from patent US20240352040A1.

assay: Rough solubility in different solvent systems at room temperature; assay type: physicochemical; settings: ethanol, organic solvent or mixture, thermodynamic from solid, Ethanol, read-out: Solubility
endpoint label: solubility

molecule="Nc1nc2cc(-c3cnc4c(c3)C(=O)N(Cc3cc(OC(F)(F)F)ccc3F)CC4)ccn2n1 [free base anhydrous crystal form A]" recorded_value="< 2200 µg/mL"

====

assay: Rough solubility in different solvent systems at room temperature; assay type: physicochemical; conditions: dimethyl sulfoxide, 50 °C, organic solvent or mixture, thermodynamic from solid; *Dissolve to clear at 50° C.
endpoint label: solubility

compound="Nc1nc2cc(-c3cnc4c(c3)C(=O)N(Cc3cc(OC(F)(F)F)ccc3F)CC4)ccn2n1 [free base anhydrous crystal form A]" recorded_value="7.7 to 23 mg/mL"

====

test: Rough solubility in different solvent systems at room temperature; assay type: physicochemical; conditions: acetone, organic solvent or mixture, thermodynamic from solid, Acetone, read-out: Solubility
endpoint label: solubility

molecule="Nc1nc2cc(-c3cnc4c(c3)C(=O)N(Cc3cc(OC(F)(F)F)ccc3F)CC4)ccn2n1 [free base anhydrous crystal form A]" recorded_value="< 1800 µg/mL"

====

test: Rough solubility in different solvent systems at room temperature; type: physicochemical; settings: n-heptane, organic solvent or mixture, thermodynamic from solid, n-Heptane, read-out: Solubility
endpoint label: solubility

compound="Nc1nc2cc(-c3cnc4c(c3)C(=O)N(Cc3cc(OC(F)(F)F)ccc3F)CC4)ccn2n1 [free base anhydrous crystal form A]" recorded_value="< 1700 µg/mL"

====

test system: U937 cells; assay: Inhibition of TNF-α-induced programmed cell necrosis (necroptosis) in U937 cells, CellTiter-Glo; format: cell-based; conditions: U-937, human TNF-α + Q-VD-Oph, 48 hours, read-out: inhibitory IC50 against programmed necroptosis of cells induced by TNF-α
endpoint label: IC50

record_smiles=Nc1nc2cc(-c3cnc4c(c3)C(=O)N(Cc3cc(OC(F)(F)F)ccc3F)CC4)ccn2n1 recorded_value="6 nM"

====

assay: Rough solubility in different solvent systems at room temperature; format: physicochemical; conditions: acetonitrile, organic solvent or mixture, thermodynamic from solid, Acetonitrile, read-out: Solubility
endpoint label: solubility

compound="Nc1nc2cc(-c3cnc4c(c3)C(=O)N(Cc3cc(OC(F)(F)F)ccc3F)CC4)ccn2n1 [free base anhydrous crystal form A]" recorded_value="< 1900 µg/mL"

====

Test: Rough solubility in different solvent systems at room temperature
Format: physicochemical
Conditions: isopropanol, organic solvent or mixture, thermodynamic from solid, Isopropanol, read-out: Solubility
Procedure: The rough solubility of the free base anhydrous crystal form A of the compound of formula I obtained in Example 1 and the monohydrate crystal form C of the sulfate salt of the compound of formula I obtained in Example 4 was tested in different solvent systems at room temperature. […] The rough solubility ranges calculated from the mass of the solid sample, the volume of the added solvent, and the observed dissolution phenomena are shown in Table 25-1 and Table 25-2.
endpoint label: solubility

compound="Nc1nc2cc(-c3cnc4c(c3)C(=O)N(Cc3cc(OC(F)(F)F)ccc3F)CC4)ccn2n1 [free base anhydrous crystal form A]" endpoint_label=solubility recorded_value="< 1900 µg/mL"
